Experiment: protein stability index of a GFP-peptide fusion (yeast GPS) (PSI 1-4); higher = more stable; sorted into four equal gates, so the index is relative within each strain
Conditions: pdr5∆
attribute_measured: protein stability index
A bare number is all that is needed in reply.

The examples below pair each entry with its known result.
TEAAFTKLDQVWGSETV [RPL4A] :: 1.87
SDDIAENDNLDNVSKNA [YCG1] :: 3.34
RPPNGIKNFKSLLLSSS [SSN2] :: 1.53
GTLDKNSQTVSGTPITQ [SNF2] :: 2.71

// query protein stability index value for entry VIVTDPRSDAQAIKEAS [RPS0A]
2.96

// query protein stability index value for entry SKALLREISNFSKGDAD [SRP72]
3.41

// query protein stability index value for entry IYINKSVPTNSADAPNP [RET1]
3.2

// query protein stability index value for entry NTVMLQGIFKNSSNYFG [AAR2]
1.29
